For each entry below, report its Papp A→B at 2 h value.
- Protocol notes: Assay C: permeability in CACO-2 cells
- Type: in vitro ADME
- Assay conditions: human, pH 7.2; Caco-2, apical to basolateral; prior art compounds, Table 8
Numbers only, in ×10⁻⁶ cm/s.

> print(dat)
                                   compound  observed.measurement
1  Cn1cnnc1C1CCN(S(=O)(=O)c2cccc(Nc3ccc(OCc4ccccc4)nc3)c2)CC1 [compound 23, reference compound]                   3.5

Lab note: Cn1cnnc1C1CCN(S(=O)(=O)c2cccc(Nc3ccc(F)nc3)c2)CC1 [compound 21, reference compound] gave Papp A→B at 2 h of 0.7
